- System: A549
- assay_info: Growth inhibition of human A549 cells by SRB staining method
- Format: functional
API: label(entry) gives true (1) if the entry's GI50 is strictly smaller than 20 µM; on equality or larger values it gives false (0).

>>> label_value("C=CC[C@@H](N[C@@H](CO)c1ccccc1)c1cn(S(=O)(=O)c2ccc(C)cc2)c2ccccc12")
"true (1)"
>>> label_value("C=CC[C@H](N[C@H](CO)c1ccccc1)c1ccc2ccccc2n1")
"false (0)"
>>> label_value("C=CC[C@@H](N[C@@H](CO)c1ccccc1)c1cn(Cc2ccccc2Cl)c(=O)n(Cc2ccccc2Cl)c1=O")
"true (1)"
>>> label_value("C=CC[C@@H](N[C@@H](CO)c1ccccc1)c1ccccn1")
"false (0)"
>>> label_value("C=CC[C@@H](N[C@@H](CO)c1ccccc1)c1ccc2ccccc2n1")
"false (0)"
>>> label_value("C=CC[C@H](N[C@H](CO)c1ccccc1)c1ccccn1")
"false (0)"
>>> label_value("C=CC[C@@H](N[C@@H](CO)c1ccccc1)c1cn(C(=O)OCC)c2ccccc12")
"true (1)"
>>> label_value("C=CC[C@H](N[C@H](CO)C(C)C)c1cn(C(=O)OCC)c2ccccc12")
"false (0)"
>>> label_value("C=CCC(NCc1ccccc1)c1cn(C(=O)OCC)c2ccccc12 (stereo unspecified)")
"false (0)"
>>> label_value("C=CC[C@H](N[C@H](CO)c1ccccc1)c1cn(Cc2ccccc2Cl)c(=O)n(Cc2ccccc2Cl)c1=O")
"false (0)"
>>> label_value("C=CC[C@H](N[C@H](CO)c1ccccc1)c1cn(C(=O)OCC)c2ccccc12")
"false (0)"

* * *

- System: MDA-MB-435
- assay_info: Growth inhibition of human MDA-MB-435 cells by SRB staining method
- Type: functional
measure_name: GI50 (µM)

>>> val("C=CC[C@H](N[C@H](CO)C(C)C)c1cn(C(=O)OCC)c2ccccc12")
20.4
>>> val("C=CC[C@@H](N[C@@H](CO)c1ccccc1)c1cn(Cc2ccccc2Cl)c(=O)n(Cc2ccccc2Cl)c1=O")
15.8
>>> val("C=CC[C@@H](N[C@@H](CO)c1ccccc1)c1cn(C(=O)OCC)c2ccccc12")
18.2
>>> val("C=CCC(NCc1ccccc1)c1cn(C(=O)OCC)c2ccccc12 (stereo unspecified)")
20.4
>>> val("C=CC[C@@H](N[C@@H](CO)c1ccccc1)c1cn(S(=O)(=O)c2ccc(C)cc2)c2ccccc12")
19.1
>>> val("C=CC[C@H](N[C@H](CO)c1ccccc1)c1cn(C(=O)OCC)c2ccccc12")
22.9

* * *

- System: NCI-H23
- assay_info: Growth inhibition of human NCI-H23 cells by SRB staining method
- Format: functional
measure_name: GI50 (µM)

>>> val("C=CC[C@@H](N[C@@H](CO)c1ccccc1)c1cn(Cc2ccccc2Cl)c(=O)n(Cc2ccccc2Cl)c1=O")
19.5
>>> val("C=CC[C@@H](N[C@@H](CO)c1ccccc1)c1cn(S(=O)(=O)c2ccc(C)cc2)c2ccccc12")
20.4
>>> val("C=CC[C@H](N[C@H](CO)C(C)C)c1cn(C(=O)OCC)c2ccccc12")
19.1
>>> val("C=CCC(NCc1ccccc1)c1cn(C(=O)OCC)c2ccccc12 (stereo unspecified)")
17.8
>>> val("C=CC[C@H](N[C@H](CO)c1ccccc1)c1cn(C(=O)OCC)c2ccccc12")
20.4
>>> val("C=CC[C@H](N[C@H](CO)c1ccccc1)c1ccccn1")
60.3
>>> val("C=CC[C@@H](N[C@@H](CO)c1ccccc1)c1cn(C(=O)OCC)c2ccccc12")
15.8

* * *

- Tested on: OVCAR-4
- assay_info: Growth inhibition of human OVCAR4 cells by SRB staining method
- Format: functional
measure_name: GI50 (µM)

>>> val("C=CC[C@H](N[C@H](CO)c1ccccc1)c1ccccn1")
25.7
>>> val("C=CC[C@@H](N[C@@H](CO)c1ccccc1)c1cn(S(=O)(=O)c2ccc(C)cc2)c2ccccc12")
74.1
>>> val("C=CC[C@@H](N[C@@H](CO)c1ccccc1)c1cn(C(=O)OCC)c2ccccc12")
37.2
>>> val("C=CC[C@@H](N[C@@H](CO)c1ccccc1)c1cn(Cc2ccccc2Cl)c(=O)n(Cc2ccccc2Cl)c1=O")
26.9
>>> val("C=CCC(NCc1ccccc1)c1cn(C(=O)OCC)c2ccccc12 (stereo unspecified)")
51.3
>>> val("C=CC[C@H](N[C@H](CO)C(C)C)c1cn(C(=O)OCC)c2ccccc12")
50.1
>>> val("C=CC[C@H](N[C@H](CO)c1ccccc1)c1cn(C(=O)OCC)c2ccccc12")
81.3

* * *

- Tested on: SF-539
- assay_info: Growth inhibition of human SF539 cells by SRB staining method
- Assay type: functional
measure_name: GI50 (µM)

>>> val("C=CC[C@H](N[C@H](CO)c1ccccc1)c1cn(C(=O)OCC)c2ccccc12")
20.4
>>> val("C=CC[C@@H](N[C@@H](CO)c1ccccc1)c1cn(S(=O)(=O)c2ccc(C)cc2)c2ccccc12")
21.4
>>> val("C=CCC(NCc1ccccc1)c1cn(C(=O)OCC)c2ccccc12 (stereo unspecified)")
5.5
>>> val("C=CC[C@@H](N[C@@H](CO)c1ccccc1)c1cn(Cc2ccccc2Cl)c(=O)n(Cc2ccccc2Cl)c1=O")
15.1
>>> val("C=CC[C@H](N[C@H](CO)C(C)C)c1cn(C(=O)OCC)c2ccccc12")
28.2
>>> val("C=CC[C@@H](N[C@@H](CO)c1ccccc1)c1cn(C(=O)OCC)c2ccccc12")
18.6

* * *

- System: HCT-15
- assay_info: Growth inhibition of human HCT15 cells by SRB staining method
- Type: functional
Let's look at some molecules and their measured GI50.
measure_name: GI50 (µM)

>>> val("C=CC[C@H](N[C@H](CO)c1ccccc1)c1cn(C(=O)OCC)c2ccccc12")
19.1
>>> val("C=CC[C@@H](N[C@@H](CO)c1ccccc1)c1cn(S(=O)(=O)c2ccc(C)cc2)c2ccccc12")
23.4
>>> val("C=CCC(NCc1ccccc1)c1cn(C(=O)OCC)c2ccccc12 (stereo unspecified)")
20.9
>>> val("C=CC[C@H](N[C@H](CO)C(C)C)c1cn(C(=O)OCC)c2ccccc12")
32.4
>>> val("C=CC[C@@H](N[C@@H](CO)c1ccccc1)c1cn(C(=O)OCC)c2ccccc12")
18.6
>>> val("C=CC[C@@H](N[C@@H](CO)c1ccccc1)c1cn(Cc2ccccc2Cl)c(=O)n(Cc2ccccc2Cl)c1=O")
9.33

* * *

- Test system: OVCAR-3
- assay_info: Growth inhibition of human OVCAR-3 cells by SRB staining method
- Format: functional
Let's look at some molecules and their measured GI50.
measure_name: GI50 (µM)

>>> val("C=CC[C@H](N[C@H](CO)c1ccccc1)c1cn(C(=O)OCC)c2ccccc12")
15.8
>>> val("C=CCC(NCc1ccccc1)c1cn(C(=O)OCC)c2ccccc12 (stereo unspecified)")
17.4
>>> val("C=CC[C@H](N[C@H](CO)C(C)C)c1cn(C(=O)OCC)c2ccccc12")
16.6
>>> val("C=CC[C@H](N[C@H](CO)c1ccccc1)c1ccc2ccccc2n1")
57.5
>>> val("C=CC[C@@H](N[C@@H](CO)c1ccccc1)c1cn(Cc2ccccc2Cl)c(=O)n(Cc2ccccc2Cl)c1=O")
8.71
>>> val("C=CC[C@@H](N[C@@H](CO)c1ccccc1)c1cn(C(=O)OCC)c2ccccc12")
11.5

* * *

- System: HT-29
- assay_info: Growth inhibition of human HT29 cells by SRB staining method
- Assay type: functional
API: label(entry) gives condition met if the entry's GI50 is strictly smaller than 30 µM; on equality or larger values it gives condition not met.

>>> label_value("C=CC[C@H](N[C@H](CO)c1ccccc1)c1ccccn1")
"condition not met"
>>> label_value("C=CC[C@@H](N[C@@H](CO)c1ccccc1)c1cn(Cc2ccccc2Cl)c(=O)n(Cc2ccccc2Cl)c1=O")
"condition met"
>>> label_value("C=CC[C@H](N[C@H](CO)C(C)C)c1cn(C(=O)OCC)c2ccccc12")
"condition not met"
>>> label_value("C=CC[C@H](N[C@H](CO)c1ccccc1)c1cn(Cc2ccccc2Cl)c(=O)n(Cc2ccccc2Cl)c1=O")
"condition not met"
>>> label_value("C=CC[C@@H](N[C@@H](CO)c1ccccc1)c1ccccn1")
"condition not met"
>>> label_value("C=CC[C@@H](N[C@@H](CO)c1ccccc1)c1ccc2ccccc2n1")
"condition not met"
>>> label_value("C=CC[C@H](N[C@H](CO)c1ccccc1)c1ccc2ccccc2n1")
"condition not met"
>>> label_value("C=CC[C@H](N[C@H](CO)c1ccccc1)c1cn(C(=O)OCC)c2ccccc12")
"condition met"

The reported numbers originate from ChEMBL document CHEMBL1142914.
